Target: human Somatostatin 4 receptor (SSTR4) (Homo sapiens (Human), UniProt P31391)
Sequence (P31391 whole entry): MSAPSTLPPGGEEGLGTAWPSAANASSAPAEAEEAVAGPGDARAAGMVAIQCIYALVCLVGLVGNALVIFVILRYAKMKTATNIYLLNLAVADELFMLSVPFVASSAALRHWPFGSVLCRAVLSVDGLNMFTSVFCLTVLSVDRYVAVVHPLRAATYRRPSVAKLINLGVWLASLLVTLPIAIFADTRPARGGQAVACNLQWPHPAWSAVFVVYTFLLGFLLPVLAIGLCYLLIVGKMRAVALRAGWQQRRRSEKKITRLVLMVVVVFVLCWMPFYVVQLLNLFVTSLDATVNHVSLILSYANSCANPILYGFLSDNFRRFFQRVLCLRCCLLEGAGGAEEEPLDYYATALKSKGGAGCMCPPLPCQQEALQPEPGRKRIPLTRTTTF
Test: cAMP assay with human Somatostatin 4 receptor
Settings: hSSTR4 expressing H4 cells, inhibition of Forskolin-stimulated cAMP; read-out: SSTR4 agonism EC50
Reported EC50 values for a set of compounds
Output should be the measured figure followed by the unit it is expressed in.

Cc1cccn2c(C(C)(C)NC(=O)c3nccc4c3OCCNC4)nc(C)c12 : 10.4 nM

Entry Cc1nc(C(C)(C)NC(=O)c2cccc3c2OCCNC3)n2cccc(F)c12 , EC50 reported as 2 nM

Entry Cc1cc2cccnc2c(C(C)(C)NC(=O)c2cccc3c2OCCNC3)n1 , EC50 reported as 58.1 nM

Entry Cc1cccn2c(C(C)(C)NC(=O)c3nccc4c3OCCNC4)ncc12 , EC50 reported as 13.6 nM

====

Reported log10 EC50 values for a set of molecules
Biological target: human Somatostatin 4 receptor (SSTR4) (Homo sapiens (Human), UniProt P31391)
Assay: cAMP assay with human Somatostatin 4 receptor
Settings: hSSTR4 expressing H4 cells, inhibition of Forskolin-stimulated cAMP; read-out: SSTR4 agonism EC50
Recorded EC50 (log10, nM)

The examples below pair each entry with its known result.
COc1cccn2c(C(C)(C)NC(=O)c3nccc4c3OCCNC4)ncc12 : 2.03
Cc1cccn2c([C@H](C)NC(=O)c3cccc4c3OCCNC4)ncc12 : 1.97
Cc1cccn2c(C(C)(C)NC(=O)c3ccnc4c3OCCNC4)ncc12 : 1.53
Cn1nc(C(C)(C)NC(=O)c2cccc3c2OCCNC3)c2cccc(C(F)(F)F)c21 : 0.83
Cc1cccc2c(C(C)(C)NC(=O)c3cccc4c3OCCNC4)cnn12 : 0.64

Entry Cc1cccn2c(C(C)(C)NC(=O)c3cncc4c3OCCNC4)ncc12 , log10 EC50 reported as 1.50

Entry Cc1cccc2c(C(C)(C)NC(=O)c3ccnc4c3OCCNC4)nn(C)c12 , log10 EC50 reported as 1.26

Entry Cc1nnc(C(C)(C)NC(=O)c2cccc3c2OCCNC3)c2ccccc12 , log10 EC50 reported as 0.40

Entry Cc1cc2ccccc2c(C(C)(C)NC(=O)c2ccnc3c2OCCNC3)n1 , log10 EC50 reported as 1.28

Entry Cc1cccn2c(C(C)(C)NC(=O)c3cccc4c3OCCNC4)nnc12 , log10 EC50 reported as 1.58

Entry CC(C)(NC(=O)c1cccc2c1OCCNC2)c1nc2ccc(Cl)cc2[nH]1 , log10 EC50 reported as 1.65

Entry O=C(NC1(c2nc3ccc(Cl)cc3[nH]2)CC1)c1cccc2c1OCCNC2 , log10 EC50 reported as 2.53

Entry CC(C)(NC(=O)c1nccc2c1OCCNC2)c1noc2c(F)cccc12 , log10 EC50 reported as 2.54

Entry Cc1cccn2c(C3(NC(=O)c4cccc5c4OCCNC5)CC3)ncc12 , log10 EC50 reported as 0.18

Entry Cc1cccn2c(C(C)(CC(C)C)NC(=O)c3cccc4c3OCCNC4)ncc12 (stereo not drawn) , log10 EC50 reported as 3.30

Entry Cc1nc(C(C)(C)NC(=O)c2cccc3c2OCCNC3)c2cccc(C)c2n1 , log10 EC50 reported as 1.33

Entry Cn1nc(C(C)(C)NC(=O)c2cccc3c2OCCNC3)c2ccccc21 , log10 EC50 reported as 0.64

Entry CC(C)(NC(=O)c1cccc2c1OCCNC2)c1noc2c(Cl)cccc12 , log10 EC50 reported as 0.46
